# target under test: KAT6A Full length enzyme (Homo sapiens (Human), UniProt Q92794)
# Sequence (Q92794 other isoform, or with tags, fused parts or gaps): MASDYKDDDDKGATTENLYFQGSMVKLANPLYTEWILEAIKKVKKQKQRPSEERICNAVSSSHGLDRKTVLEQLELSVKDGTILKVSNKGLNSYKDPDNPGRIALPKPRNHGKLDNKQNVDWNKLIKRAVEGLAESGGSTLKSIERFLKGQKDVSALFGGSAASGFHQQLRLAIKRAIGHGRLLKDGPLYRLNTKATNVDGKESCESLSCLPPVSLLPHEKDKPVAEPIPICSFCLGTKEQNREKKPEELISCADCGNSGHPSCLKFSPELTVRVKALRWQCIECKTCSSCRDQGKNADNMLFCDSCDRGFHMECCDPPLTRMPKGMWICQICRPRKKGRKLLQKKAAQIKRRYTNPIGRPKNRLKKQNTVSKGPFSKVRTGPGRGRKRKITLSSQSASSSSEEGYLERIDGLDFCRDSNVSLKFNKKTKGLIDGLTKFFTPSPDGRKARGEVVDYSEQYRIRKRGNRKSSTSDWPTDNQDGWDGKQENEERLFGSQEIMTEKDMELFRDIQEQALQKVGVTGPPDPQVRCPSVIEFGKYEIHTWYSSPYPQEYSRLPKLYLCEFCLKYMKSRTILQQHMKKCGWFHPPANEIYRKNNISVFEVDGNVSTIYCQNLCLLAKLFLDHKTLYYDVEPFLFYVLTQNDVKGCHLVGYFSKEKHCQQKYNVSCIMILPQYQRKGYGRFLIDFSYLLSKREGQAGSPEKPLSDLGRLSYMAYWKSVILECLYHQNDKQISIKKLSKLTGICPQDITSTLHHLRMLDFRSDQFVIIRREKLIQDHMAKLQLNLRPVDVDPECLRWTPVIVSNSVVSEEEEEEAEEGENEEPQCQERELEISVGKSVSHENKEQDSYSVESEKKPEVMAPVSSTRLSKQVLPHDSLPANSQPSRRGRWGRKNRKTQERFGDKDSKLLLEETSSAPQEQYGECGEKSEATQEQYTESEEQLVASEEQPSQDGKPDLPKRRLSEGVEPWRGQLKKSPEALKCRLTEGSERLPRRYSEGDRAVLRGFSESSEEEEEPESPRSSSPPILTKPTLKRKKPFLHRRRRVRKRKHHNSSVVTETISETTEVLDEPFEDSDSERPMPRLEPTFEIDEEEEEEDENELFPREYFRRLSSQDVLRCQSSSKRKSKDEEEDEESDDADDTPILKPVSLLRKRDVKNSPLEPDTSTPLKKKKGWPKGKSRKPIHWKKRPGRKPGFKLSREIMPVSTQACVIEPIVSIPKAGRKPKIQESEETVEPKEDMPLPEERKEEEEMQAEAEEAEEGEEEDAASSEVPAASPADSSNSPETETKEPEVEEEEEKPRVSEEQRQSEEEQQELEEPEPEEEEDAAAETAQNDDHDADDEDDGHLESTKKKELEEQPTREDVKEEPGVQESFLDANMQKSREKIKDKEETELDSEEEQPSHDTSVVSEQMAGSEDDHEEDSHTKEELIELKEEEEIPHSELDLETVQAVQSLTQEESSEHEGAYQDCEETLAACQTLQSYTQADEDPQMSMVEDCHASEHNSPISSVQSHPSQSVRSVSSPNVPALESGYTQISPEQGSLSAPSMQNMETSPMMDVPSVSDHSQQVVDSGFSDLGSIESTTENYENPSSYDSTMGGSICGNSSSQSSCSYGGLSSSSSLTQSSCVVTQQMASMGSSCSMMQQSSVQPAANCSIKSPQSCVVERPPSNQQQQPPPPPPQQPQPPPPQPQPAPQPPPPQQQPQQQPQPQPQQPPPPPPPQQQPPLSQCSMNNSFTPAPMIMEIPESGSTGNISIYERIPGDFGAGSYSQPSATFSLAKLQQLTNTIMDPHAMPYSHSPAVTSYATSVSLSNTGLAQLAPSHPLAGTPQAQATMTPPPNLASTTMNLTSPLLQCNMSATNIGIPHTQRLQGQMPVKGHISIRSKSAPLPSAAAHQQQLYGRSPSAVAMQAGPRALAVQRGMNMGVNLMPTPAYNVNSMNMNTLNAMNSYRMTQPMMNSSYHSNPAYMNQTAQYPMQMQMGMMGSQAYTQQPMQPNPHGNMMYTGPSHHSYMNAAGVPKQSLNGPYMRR
# test details: KAT6A assay (SAMDI-MS acetylation of H3 1-21 peptide)
# Format: biochemical
# assay context: Morrison equation fit; replicate number in parentheses; read-out: KAT6A Ki (nM) (replicate number)
// reported Ki per item
Give the value in nM but do not write nM after it.

The following molecules have reported results that may help.
COc1cc2c(NS(=O)(=O)c3c(OC)cc([C@@H]4CCCO4)cc3OC)noc2cc1Nc1cc(C2CC2)n[nH]1 [Example 140]    1.5
COc1cc2c(NS(=O)(=O)c3c(OC)cc(C4CCCCN4C)cc3OC)noc2cc1Nc1cc(C2CC2)n[nH]1 (single isomer, unassigned) [Example 171]    2.1

# evaluate next
Report Ki for COc1cc2c(NS(=O)(=O)c3c(OC)cccc3OC)noc2cc1Nc1cc(C(=O)O)n[nH]1 [Example 54]
2

---

Parameter: Ki. Scope: all listed entries.
# target under test: KAT7+JADE1+EAF6+ING5 4 protein complex (Homo sapiens (Human))
# test details: KAT7 JADE1 assay (SAMDI-MS acetylation of H3 1-21 peptide)
# Assay type: biochemical
# assay context: Morrison equation fit; replicate number in parentheses; read-out: KAT7 JADE1 Ki (nM) (replicate number)
Give just the number in nM; leave the unit off.

COc1cc2c(NS(=O)(=O)c3c(OC)cccc3OC)noc2cc1Nc1cc(C(C)C)n[nH]1    113
COc1cc2c(NS(=O)(=O)c3ccccc3)noc2cc1Nc1ccn(C)n1    625
COc1cc2c(NS(=O)(=O)c3c(OC)cc(-c4nccc(CN(C)C)n4)cc3OC)noc2cc1Nc1cc(C2CC2)n[nH]1    4.5
CCOc1cc(F)ccc1S(=O)(=O)Nc1noc2cc(Nc3cc(C4CC4)n[nH]3)c(F)c(OC)c12    92
CCN1CCOC(c2cc(OC)c(S(=O)(=O)Nc3noc4cc(Nc5cc(C6CC6)n[nH]5)c(OC)cc34)c(OC)c2)C1 (single isomer, unassigned) [Example 157]    11.6

Fill in Ki for record COc1cc2c(NS(=O)(=O)c3c(OC)cc(C4CCCCN4C)cc3OC)noc2cc1Nc1cc(C2CC2)n[nH]1 (single isomer, unassigned) [Example 171]
8.4

Give the reported value of Ki for this record: CCc1cc(Nc2cc3onc(NS(=O)(=O)c4ccc5c(c4)OCCO5)c3cc2OC)n[nH]1
244

Tell me its Ki given COc1cc2c(NS(=O)(=O)c3c(OC)cccc3OC)noc2cc1Nc1cc([C@H]2CC2(F)F)[nH]n1 (single isomer, unassigned) as the entry.
16.8

Name the recorded Ki of the item COc1cc2c(NS(=O)(=O)c3c(OC)cc(-c4cccn(C)c4=O)cc3OC)noc2cc1Nc1cc(C2CC2)n[nH]1 in your answer.
6.2

Give Ki for the following compound: COc1cc2c(NS(=O)(=O)c3c(OC)cc(N4C(=O)CCC4C)cc3OC)noc2cc1Nc1cc(C2CC2)n[nH]1 (single isomer, unassigned) [Example 245]
3.6

Answer with the recorded Ki for the compound listed here: CCc1cc(Nc2cc3onc(NS(=O)(=O)c4c(OC)cccc4OC)c3cc2OC)[nH]n1
19.5

---

# target under test: KAT7+JADE1+EAF6+ING5 4 protein complex (Homo sapiens (Human))
# test details: KAT7 JADE1 assay (SAMDI-MS acetylation of H3 1-21 peptide)
# Assay type: biochemical
# assay context: Morrison equation fit; replicate number in parentheses; read-out: KAT7 JADE1 Ki (nM) (replicate number)
The following compounds are shown together with reported Ki values.
# number only, unit nM dropped from output

COc1cc2c(NS(=O)(=O)c3cc(C)ccc3OC)noc2cc1Nc1cc[nH]n1 [Example 24]    285
COc1cc2c(NS(=O)(=O)c3c(OC)cc(CN4CC(F)(F)C4)cc3OC)noc2cc1Nc1cc(C2CC2)n[nH]1 [Example 203]    4.3
COc1cc2c(NS(=O)(=O)c3c(OC)cc(C4CCN(C)C4)cc3OC)noc2cc1Nc1cc(C2CC2)n[nH]1 (single isomer, unassigned) [Example 147]    12.1

API: the following record is the query input.
Give the reported value of Ki for this record: COc1cc2c(NS(=O)(=O)c3ccccc3OC)noc2cc1Nc1cc(C)n[nH]1 [Example 06]
148

---

# target under test: KAT5 Full length enzyme (Homo sapiens (Human), UniProt Q92993)
# Sequence (Q92993 whole entry): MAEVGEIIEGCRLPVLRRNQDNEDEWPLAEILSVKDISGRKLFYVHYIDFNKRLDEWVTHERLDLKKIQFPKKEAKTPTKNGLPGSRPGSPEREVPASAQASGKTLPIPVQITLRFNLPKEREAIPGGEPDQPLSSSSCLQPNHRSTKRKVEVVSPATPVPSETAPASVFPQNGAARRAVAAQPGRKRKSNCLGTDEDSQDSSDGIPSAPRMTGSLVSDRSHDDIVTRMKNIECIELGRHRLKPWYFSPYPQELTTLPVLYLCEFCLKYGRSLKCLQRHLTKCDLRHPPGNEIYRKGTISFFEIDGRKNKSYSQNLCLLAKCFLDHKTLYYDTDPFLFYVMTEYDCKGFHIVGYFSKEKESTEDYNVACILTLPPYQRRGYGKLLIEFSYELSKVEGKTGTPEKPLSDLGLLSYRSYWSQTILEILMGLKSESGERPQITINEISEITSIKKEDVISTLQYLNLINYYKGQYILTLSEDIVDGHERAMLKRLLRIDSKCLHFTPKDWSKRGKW
# test details: KAT5 assay (SAMDI-MS acetylation of H4 1-21 peptide)
# Assay type: biochemical
# assay context: Morrison equation fit; replicate number in parentheses; read-out: KAT5 Ki (nM) (replicate number)
readout name: Ki (nM)
// note: answer is a bare numeric in nM

Here's what some known entries look like.
CCOc1cc(C)ccc1S(=O)(=O)Nc1noc2cc(Nc3cc[nH]n3)c(OC)cc12 [Example 29]    594
COc1cc2c(NS(=O)(=O)c3c(OC)cccc3OC)noc2cc1Nc1cc(C(C)C)n[nH]1 [Example 50]    634

Give the value of Ki reported for the following: COc1cc2c(NS(=O)(=O)c3ccc(C)cc3OCC(F)F)noc2cc1Nc1cc[nH]n1 [Example 64]
48.1

Please give the documented Ki of COc1cc2c(NS(=O)(=O)c3c(OC)cccc3OC)noc2cc1Nc1ncccn1 [Example 102]
5970

---

Measured Ki of individual entries
# target under test: KAT7+BRPF2+EAF6+ING5 4 protein complex (Homo sapiens (Human), UniProt O95251)
# test details: KAT7 BRPF2 assay (SAMDI-MS acetylation of H3 1-21 peptide)
# Format: biochemical
# assay context: Morrison equation fit; replicate number in parentheses; read-out: KAT7 BRPF2 Ki (nM) (replicate number)
Could you give me the number in nM? Just the number is fine.

The following molecules have reported results that may help.
COc1cccc(OC)c1S(=O)(=O)Nc1noc2cc(Nc3cc[nH]n3)cc(OC)c12    37
CCOc1ccccc1S(=O)(=O)Nc1noc2cc(Nc3cc[nH]n3)c(OC)cc12    141
COc1cc2c(NS(=O)(=O)c3cc4c(cc3OC)CCCC4)noc2cc1Nc1cc(C)n[nH]1    18.3
COc1cc2c(NS(=O)(=O)c3c(OC)cc([C@H]4CCCN4C)cc3OC)noc2cc1Nc1cc(C2CC2)n[nH]1    2.9
COc1cc2c(NS(=O)(=O)c3c(OC)cccc3OC)noc2cc1Nc1cc(C2CCNCC2)n[nH]1    512

Determine its reported Ki: CCOc1cc(C)c(F)cc1S(=O)(=O)Nc1noc2cc(Nc3cc(C(C)C)[nH]n3)c(OC)cc12
26.5

Give the measured Ki for COc1cc2c(NS(=O)(=O)c3c(OC)cccc3OC)noc2cc1Nc1ncn(C)n1
156

// Input: COc1cc2c(NS(=O)(=O)c3c(OC)cccc3OC)noc2cc1Nc1ccn(C)n1 . Output its Ki only.
57.2

Identify measured Ki associated with CCOc1cccc(OC)c1S(=O)(=O)Nc1noc2cc(Nc3cc(C(C)C)[nH]n3)c(OC)cc12
7.8

Using the record for COc1cc2c(NS(=O)(=O)c3ccc(C)cc3OC)noc2cc1Nc1cc[nH]n1 , state its measured Ki.
95.2

Given COc1cc2c(NS(=O)(=O)c3c(OC)cccc3OCC(F)F)noc2cc1Nc1cc[nH]n1 , respond with its Ki.
104

Find the measured Ki of COc1cc2c(NS(=O)(=O)c3c(OC)cc([C@H]4COCCO4)cc3OC)noc2cc1Nc1cc(C2CC2)[nH]n1 and report it.
1.7

Determine its reported Ki: CCn1ccc(Nc2cc3onc(NS(=O)(=O)c4c(OC)cccc4OC)c3cc2OC)n1
98.2

Give the reported value of Ki for this record: COc1cc2c(NS(=O)(=O)c3c(OC)cccc3OC(C)C)noc2cc1Nc1cc[nH]n1
79.5

Specify reported Ki for the molecule shown: CCOc1cccc(OC)c1S(=O)(=O)Nc1noc2cc(Nc3cc[nH]n3)c(OC)cc12
26

Report measured Ki; entry is COc1cc2c(NS(=O)(=O)c3ccc(C)cc3OCC(F)F)noc2cc1Nc1cc(C(C)C)[nH]n1
35.3

Provide Ki value for the following molecule: COc1cc2c(NS(=O)(=O)c3c(OC)cc(C4COC(C)(C)CO4)cc3OC)noc2cc1Nc1cc(C2CC2)n[nH]1 (single isomer, unassigned) [Example 186]
1.5

Supply measured Ki of COc1cc2c(NS(=O)(=O)c3c(OC)cc(C4COCC(C)(C)O4)cc3OC)noc2cc1Nc1cc(C2CC2)n[nH]1 (single isomer, unassigned) [Example 183] in your reply.
2.1

Supply reported Ki belonging to this molecule: COc1cc2c(NS(=O)(=O)c3ccc(Cl)cc3OC)noc2cc1Nc1cc[nH]n1
124

State its Ki: CCOc1cc(C)ccc1S(=O)(=O)Nc1noc2cc(Nc3cc(C(C)C)[nH]n3)c(OC)cc12
54.4

Please give measured Ki of the following entry: CCn1cc(Nc2cc3onc(NS(=O)(=O)c4c(OC)cccc4OC)c3cc2OC)nn1
30.8

Answer with the recorded Ki for the molecule listed here: CCc1nc(Nc2cc3onc(NS(=O)(=O)c4c(OC)cccc4OC)c3cc2OC)n[nH]1
156

Please report Ki for the following molecule: COC(=O)c1cc(Nc2cc3onc(NS(=O)(=O)c4c(OC)cccc4OC)c3cc2OC)[nH]n1
147

Note Ki for the molecule shown: COc1cc2c(NS(=O)(=O)c3c(OC)cccc3OC)noc2cc1Nc1cc(C(C)C)n[nH]1
22.8

Supply measured Ki of COc1cc2c(NS(=O)(=O)c3c(OC)cccc3OC)noc2cc1Nc1cc(C2CC2)n[nH]1 in your reply.
2.2

Using known records, supply Ki for COc1ccccc1S(=O)(=O)Nc1noc2cc(Nc3cc[nH]n3)cc(OC)c12
90.7

Specify measured Ki for CCn1cnc(Nc2cc3onc(NS(=O)(=O)c4c(OC)cccc4OC)c3cc2OC)n1 .
94.2

Values compiled from patent US20250122183A1.
